# Run description: Apparent permeability across basolateral side to apical side in human Caco-2 cells at 3 uM incubated for 2 hrs by LC-MS/MS analysis
# Assay type: ADME, cell-based
Reported endpoint: Papp B→A at 2 h, 3 µM

Value of Papp B→A at 2 h, 3 µM reported for the compound `Cc1ccc(-c2cc(=O)oc3cc(O[C@H](C)C(=O)N4CC5CCC(C4)N5C)ccc23)c(C)c1` is 8.3 ×10⁻⁶ cm/s

---

Items are presented alongside their recorded AUC(0-t) at 24 h.
# Run description: AUC (0 to t) in ICR mouse at 1 mg/kg, iv measured upto 24 hrs by LC-MS/MS analysis
# Type: ADME, organism-based
# Parameters: time < 24 hrs, dose 1 mg/kg, route iv
# Applied conditions: in vivo
Response body: numeric value in ng·h/mL, unit text excluded.

Cc1ccc(-c2cc(=O)oc3cc(O[C@H](C)C(=O)N4CC5CCC(C4)N5C)ccc23)c(C)c1    424

Now let's try a different one.
Value of AUC(0-t) at 24 h reported for the molecule `Cc1ccc(-c2cc(=O)oc3cc(O[C@H](C)C(=O)N4CC5CCC(C4)N5)ccc23)c(C)c1` is 294
